target: HLA DRB1*1501 (human); assay: HLA class II competition binding assay
property_label: IC50
Answer by giving the amount and then stating its unit.

Per the records, this binder ( EEQYNSTYTVVSVLTVLHQD [SEQ ID NO 114] ) has IC50 equal to 2110 nM
